- Measurement protocol: Cytotoxicity against human Caov3 cells after 72 hrs by MTT assay
- Assay type: functional, cell-based
- Condition description: Caov-3, 72 h
Readout name: IC50 (µM)
Numeric answer only, unit µM assumed.

Q: Field request: IC50 | item: `CCOP(=O)(CCCN1C/C(=C\c2ccc([N+](=O)[O-])cc2)C(=O)/C(=C/c2ccc([N+](=O)[O-])cc2)C1)OCC`
Ans: 5.62

Q: Consider the molecule `CCOP(=O)(CCN1C/C(=C\c2ccc(F)cc2)C(=O)/C(=C/c2ccc(F)cc2)C1)OCC` and give its measured IC50.
Ans: 10

Q: Could you tell me which IC50 is on file for `O=C1/C(=C/c2ccc([N+](=O)[O-])cc2)CNC/C1=C\c1ccc([N+](=O)[O-])cc1` ?
Ans: 1.03

Q: Can you share its IC50? I mean this molecule: `CCOP(=O)(CN1C/C(=C\c2ccc([N+](=O)[O-])cc2)C(=O)/C(=C/c2ccc([N+](=O)[O-])cc2)C1)OCC`
Ans: 5.03

Q: What value of measured IC50 is listed for `CCOP(=O)(CCCCN1C/C(=C\c2ccc([N+](=O)[O-])cc2)C(=O)/C(=C/c2ccc([N+](=O)[O-])cc2)C1)OCC` ?
Ans: 1.01

Q: Entry `CCOP(=O)(CCN1C/C(=C\c2ccc([N+](=O)[O-])cc2)C(=O)/C(=C/c2ccc([N+](=O)[O-])cc2)C1)OCC` : reported IC50 = ?
Ans: 5.05

Q: Which IC50 value is on record for `CCOP(=O)(CCCN1C/C(=C\c2ccc(F)cc2)C(=O)/C(=C/c2ccc(F)cc2)C1)OCC` ?
Ans: 8.5

Q: Which IC50 reading was recorded for the molecule `N[C@@H](Cc1ccc(N(CCCl)CCCl)cc1)C(=O)O` ?
Ans: 20

Q: Need IC50, item `CCOP(=O)(CN1C/C(=C\c2ccc(F)cc2)C(=O)/C(=C/c2ccc(F)cc2)C1)OCC`
Ans: 10.2

====

- System: PC-3
- Measurement protocol: Cytotoxicity against human PC3 cells after 72 hrs by MTT assay
- Format: functional, cell-based
- Condition description: PC-3, 72 h
Readout name: IC50 (µM)
Use µM as the unit, but write only the number.

Q: Sample `CCOP(=O)(CN1C/C(=C\c2ccc([N+](=O)[O-])cc2)C(=O)/C(=C/c2ccc([N+](=O)[O-])cc2)C1)OCC` — what was its IC50?
Ans: 1.4

Q: Need IC50 of `CN(C)c1ccc(/C=C2\CNC/C(=C\c3ccc(N(C)C)cc3)C2=O)cc1` , thanks.
Ans: 15

Q: Please look up its IC50: `CCOP(=O)(CCN1C/C(=C\c2ccc([N+](=O)[O-])cc2)C(=O)/C(=C/c2ccc([N+](=O)[O-])cc2)C1)OCC`
Ans: 1.32

Q: Which measured IC50 value corresponds to `CCOP(=O)(CN1C/C(=C\c2ccc(F)cc2)C(=O)/C(=C/c2ccc(F)cc2)C1)OCC` ?
Ans: 3
